Tested on: SARS-CoV-2 (USA_WA1/2020 isolate)
Experiment: Vero E6-based microneutralization assay of SARS-CoV-2 infection (CPE)
Assay type: cell-based
Details: Severe acute respiratory syndrome coronavirus 2, Vero C1008, 72 h, Vero E6 cells, 2 μM CP-100356, CPE after 3 days; read-out: Anti-SARS-CoV-2 Activity EC50
pEC50: −log10 of the molar value.
Parameter threshold = 6. Response is 1 when pEC50 meets or exceeds it, else 0.

Illustrative cases are given below, each with its answer.
COc1cccc2[nH]c(C(=O)N[C@@H](CC(C)C)C(=O)N[C@@H](C[C@@H]3CCNC3=O)C(=O)CO)cc12 [PF-835231, reference compound]; 1
CC(C)CC(NC(=O)c1cc2ccccc2[nH]1)C(=O)NC(C=O)Cc1ccc[nH]c1=O (stereo not drawn) [Compound 4]; 0
CC(C)(C)[C@H](NC(=O)C(F)(F)F)C(=O)N1C[C@H]2[C@@H]([C@H]1C(=O)N[C@H](C#N)C[C@@H]1CCNC1=O)C2(C)C [Nirmatrelvir, reference compound]; 1
CC(C)C[C@H](NC(=O)OCc1ccccc1)C(=O)N[C@@H](CC1CCCCC1)C(=O)N[C@H](C=O)Cc1ccc[nH]c1=O [Compound 3]; 1

Proceed to the following item.
Record O=CC(Cc1ccc[nH]c1=O)NC(=O)C(CC1CCCCC1)NC(=O)c1cc2ccccc2[nH]1 (stereo not drawn) [Compound 5] ; criterion: pEC50 no lower than 6. Met?
0
